Tested on: NCI-H69 cell line
Assay: Cell viability assay for NCI-H69 cell line (EZ-Cytox)
Format: cell-based
Conditions: Homo sapiens, NCI-H69, 120 h; H69 cells, 5 days, 3000 nM to 0.46 nM
pIC50: −log10 of the molar value.
Quick reference: pIC50 of the listed items.

As a guide, the following entries are already answered.
pIC50 in this record for COc1cc(C(=O)NN2CCC(CCN3CCN(c4ccc(NC5CCC(=O)NC5=O)c(F)c4OC)CC3)CC2)ccc1Nc1ncc2c(n1)N(C1CCCC1)CC(F)(F)C(=O)N2C (centres unmarked) : > 7.52

pIC50 in this record for CCN1CC(F)(F)C(=O)N(C)c2cnc(Nc3ccc(C(=O)NN4CCC(CCN5CCN(c6cc(OC)c(NC7CCC(=O)NC7=O)cc6F)CC5)CC4)cc3OC)nc21 (centres unmarked) : > 7.52

pIC50 in this record for COc1cc(C(=O)NN2CCC(CCN3CCN(c4cc(OC)c(NC5CCC(=O)NC5=O)cc4F)CC3)CC2)c(F)cc1Nc1ncc2c(n1)N(C(C)C)CC(F)(F)C(=O)N2C (centres unmarked) : > 7.52

pIC50 in this record for COc1cc(C(=O)NC2CC3(CCN(CC4CCN(c5ccc(NC6CCC(=O)NC6=O)c(F)c5)CC4)CC3)C2)ccc1Nc1ncc2c(n1)N(C1CCCC1)CC(F)(F)C(=O)N2C (centres unmarked) : > 7.30

Now look at this one.
pIC50 in this record for COc1cc(C(=O)NC2CCC(N(C)CC3CCN(c4cnc(C5CCC(=O)NC5=O)cc4C)CC3)CC2)ccc1Nc1ncc2c(n1)N(C(C)C)CC(F)(F)C(=O)N2C (centres unmarked) : > 7.52
